Numbers sourced from PubChem BioAssay.

- TEST METHOD NOTES: splicing luciferase reporter signal modulators, primary screen, spliceosome inhibition project, cell-based, HEK293, splice +/- reporter (AID 1101);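 note: HEK293 cells carrying a splicing-competent luciferase reporter gene; test concentration not given here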
- DETAILS: luminescence, 24 h, higher = more signal, called active from +8 up or from −8 down
Known z-score of a selection of compounds
Reply with just the number.

Worked cases, z-score given:
COMPOUND | OBSERVED MEASUREMENT
O=C1NC(=O)C2C1C=CC(C(O)c1cc(C(F)(F)F)cc(C(F)(F)F)c1)N2Nc1ccccn1 (configuration not stated) | 1.35
COC(=O)C(CC#Cc1ccc2c(c1)[C@]1(C(=O)N2)[C@H](C(=O)Nc2nc3ccccc3s2)[C@H]2C(=O)O[C@H](c3ccccc3)[C@H](c3ccccc3)N2[C@@H]1c1ccccc1OCCO)C(=O)OC | 1.44
CC(C)C(=C=CC[C@@H](O)c1ccc(OCCO)cc1)C[C@@H](O)c1ccccn1 | 0.106

For the compound NC(=O)N1C(=O)C2C(C1=O)C1C=C(c3ccc(CO)cc3)C2C(c2cccs2)N1Cc1cccc(OC(F)(F)F)c1 (configuration not stated) , give its measured z-score value.
-1.99

For the compound CCCCCN1CC=CC23O[C@@H]4/C=C\CCC(C)OC(=O)C4[C@H]2C(=O)N(C(C)CO)[C@@H]3C1=O (some centres not stated) , give its measured z-score value.
0.304

For the compound O=C(NCCN1CCOCC1)[C@@H]1c2ccccc2C(=O)N(C2CCCCC2)[C@H]1c1ccc(CO)cc1 , give its measured z-score value.
0.261

For the compound C[N+](C)(C)CCCCCCNC(=O)[C@@H]1C[C@@H]2C(=O)N[C@@H](Cc3ccccc3)C(=O)N2[C@@H]1c1cccc(OCCO)c1 , give its measured z-score value.
-0.189
